Target: MavL(42-435) (Legionella pneumophila, UniProt Q5ZSJ1)
Sequence (Q5ZSJ1 42-435 limits assumed): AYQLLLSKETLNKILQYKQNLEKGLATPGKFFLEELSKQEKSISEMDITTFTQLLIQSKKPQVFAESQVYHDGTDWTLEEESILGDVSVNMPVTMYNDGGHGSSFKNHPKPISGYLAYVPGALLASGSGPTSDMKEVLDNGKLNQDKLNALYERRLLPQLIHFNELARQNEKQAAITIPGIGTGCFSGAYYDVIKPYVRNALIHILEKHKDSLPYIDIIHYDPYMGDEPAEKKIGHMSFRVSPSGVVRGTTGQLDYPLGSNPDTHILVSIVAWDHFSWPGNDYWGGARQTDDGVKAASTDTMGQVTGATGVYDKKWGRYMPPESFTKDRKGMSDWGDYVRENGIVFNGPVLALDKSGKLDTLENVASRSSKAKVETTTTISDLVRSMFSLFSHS
parameter: pKd
# log scale: pKd equals minus log10 of the concentration in mol/L

Ask: Determine its reported pKd: Nc1ncnc2c1ncn2[C@@H]1O[C@H](COP(=O)(O)OP(=O)(O)OC[C@H]2OC(O)[C@H](O)[C@@H]2O)[C@@H](O)[C@H]1O (stereo partly shown) [ADP-ribose]
Reply: 4.89
